Biological target: T1, hu-CD74 antigen (R&D SYSTEMS catalog #3590-CD-050) (human, UniProt P04233-2 73-232, limits assumed)
T1 construct: Bought antigen; also called rhCD74; human CD74
T1 sequence (looked up): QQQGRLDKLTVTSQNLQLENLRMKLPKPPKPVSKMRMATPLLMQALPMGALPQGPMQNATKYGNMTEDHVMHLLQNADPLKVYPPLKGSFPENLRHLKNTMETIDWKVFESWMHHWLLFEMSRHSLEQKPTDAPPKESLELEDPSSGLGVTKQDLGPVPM
Assay: SPR (Biacore T200), IgG captured on anti-human Fc, rhCD74 analyte
Value kind: pKd
Reminder that pKd is minus the log10 of a molar concentration.

Binder	pKd
HC 1251_A06 (wt)/LC 1337_A10 (wt) (antibody, human IgG1, kappa, V domains shown, IgG format) VH: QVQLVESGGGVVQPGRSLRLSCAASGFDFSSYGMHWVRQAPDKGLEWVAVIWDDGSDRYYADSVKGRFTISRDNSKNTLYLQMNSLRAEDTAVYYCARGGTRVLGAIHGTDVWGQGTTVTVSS VL: DIQMTQSPSSLSASVGDRVTITCRASQGISSWVAWYQQKPEKAPKSLIYGSSRLQSGVPSRFSGSGSGTDFTLTISSLQPEDFATYYCQQYNTYPLTFGGGTKVEIKR	9.69

Continue with the next binder.
Fill in reported pKd for this entry: HC 1251_B08 (g)/LC 1275_C10 (wt) (antibody, human IgG1, kappa, V domains shown, IgG format) VH: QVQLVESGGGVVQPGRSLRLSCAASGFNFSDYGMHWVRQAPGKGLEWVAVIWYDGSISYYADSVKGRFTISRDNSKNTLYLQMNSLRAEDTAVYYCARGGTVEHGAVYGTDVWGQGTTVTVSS VL: DIQMTQSPSSLSASVGDRVTITCRASQGVSSWLAWYQQKPEKAPKSLIYSARYLQSGVPSRFSGSGSGTDFTLTISSLQPEDFATYYCQQYNLYPLTFGGGTKVEIKR
9.06
